Source of measurements: ChEMBL document CHEMBL1764980

Test: Aqueous solubility of the compound in 0.1 M citric acid buffer at pH 3 after 4 hrs by HPLC analysis
Assay type: physicochemical
measurement.kind: solubility at 4 h

Using the record for `COc1ccc2c(c1)c(CC(=O)OCOC(=O)C(C)(C)C)c(C)n2C(=O)c1ccc(Cl)cc1` , state its measured solubility at 4 h.
< 0.084 µg/mL

More entries:
Using the record for `COc1ccc2c(c1)c(CC(=O)OCc1oc(=O)oc1C)c(C)n2C(=O)c1ccc(Cl)cc1` , state its measured solubility at 4 h.
< 0.0638 µg/mL

Using the record for `COc1ccc2c(c1)c(CC(=O)OCCOC(C)=O)c(C)n2C(=O)c1ccc(Cl)cc1` , state its measured solubility at 4 h.
< 0.111 µg/mL

Using the record for `COc1ccc2c(c1)c(CC(=O)OCOC(=O)OC(C)C)c(C)n2C(=O)c1ccc(Cl)cc1` , state its measured solubility at 4 h.
< 0.119 µg/mL
